# Test: Pharmacokinetic study in rats (IV, PO)
# Assay type: in vivo, Sprague-Dawley rats
# Study conditions: male, Sprague-Dawley; Table B; Rat Plasma; IV; 3 mg/kg
Quantity measured: AUC(0-t) (ng·h/mL)

In [3]: df
Out[3]:
                                smiles_repr  reading_unit  number
0  O=C(N[C@H]1CC[C@@H](Oc2nc(N3CCOCC3)cc3ncccc23)CC1)c1ncccn1       ng·h/mL     979

----------
# Test: Pharmacokinetic study in mice (IV, PO)
# Format: in vivo, mice (C57BL/6)
# Study conditions: female, C57BL/6; Table D; Mouse Plasma; IV; 3 mg/kg; read-out: AUCINF—obs
Quantity measured: AUC(0-inf) (ng·h/mL)

                                smiles_repr  number
0  O=C(N[C@H]1CC[C@@H](Oc2nc(N3CCOCC3)cc3ncccc23)CC1)c1cc[nH]c1    1470

----------
In this section we review reported pIC50 values for a set of compounds.
# Tgt: DNA-PK phosphorylation at Serine 2056 (Homo sapiens, UniProt P78527)
# Construct: host or cells: FaDu
# Test: Cellular Assay for Inhibition of DNA-PK Phosphorylation at Serine 2056 (FaDu cells, neocarzinostatin, sandwich ELISA)
# Assay type: cell-based
# Study conditions: Table 1
pIC50: −log10 of the molar value.
Quantity measured: pIC50

>>> print(df.to_string())
                                    compound        result
 0  Oc1cnc2cc(N3CCOCC3)nc(O[C@H]3CC[C@@H](Nc4ncccn4)CC3)c2c1 [Compound 19a]        > 7.00
 1  FC(F)(F)c1cnc(N[C@H]2CC[C@@H](Oc3nc(N4CCOCC4)cc4ncccc34)CC2)nc1  6.00 to 7.00
 2  O=C(N[C@H]1CC[C@@H](Oc2nc(N3CCOCC3)cc3ncccc23)CC1)c1ncccn1  6.00 to 7.00
 3  FC(F)(F)c1ccnc(N[C@H]2CC[C@@H](Oc3nc(N4CCOCC4)cc4ncccc34)CC2)n1        > 7.00
 4  O=C(N[C@H]1CC[C@@H](Oc2nc(N3CCOCC3)cc3ncccc23)CC1)n1cccn1  6.00 to 7.00
 5  Clc1cnc(N[C@H]2CC[C@@H](Oc3nc(N4CCOCC4)cc4ncccc34)CC2)nc1  6.00 to 7.00
 6  O=C(N[C@H]1CC[C@@H](Oc2nc(N3CCOCC3)cc3ncccc23)CC1)c1cc[nH]c1        > 7.00
 7  CN(C)c1ccnc(N[C@H]2CC[C@@H](Oc3nc(N4CCOCC4)cc4ncccc34)CC2)n1  6.00 to 7.00
 8  O=C(N[C@H]1CC[C@@H](Oc2nc(N3CCOCC3)cc3ncccc23)CC1)c1cnccn1  6.00 to 7.00
 9  O=C(N[C@H]1CC[C@@H](Oc2nc(N3CCOCC3)cc3ncccc23)CC1)c1nccs1  6.00 to 7.00
10  Cc1c(C(F)(F)F)cnn1[C@H]1CC[C@@H](Oc2nc(N3CCOCC3)cc3ncccc23)CC1 [Compound 17h]  5.00 to 6.00
11  CS(=O)(=O)Nc1cnc(N[C@H]2CC[C@@H](Oc3nc(N4CCOCC4)cc4ncccc34)CC2)nc1        > 7.00
12  c1cnc2cc(N3CCOCC3)nc(O[C@H]3CC[C@@H](Nc4ccc5ncnn5c4)CC3)c2c1  6.00 to 7.00
13  Cc1cnc(C(=O)N[C@H]2CC[C@@H](Oc3nc(N4CCOCC4)cc4ncccc34)CC2)nc1  6.00 to 7.00
14  c1cncc(N[C@H]2CC[C@@H](Oc3nc(N4CCOCC4)cc4ncccc34)CC2)c1  6.00 to 7.00
15  COc1cnc(N[C@H]2CC[C@@H](Oc3nc(N4CCOCC4)cc4ncc(O)cc34)CC2)nc1 [Compound 19c]        > 7.00

----------
The entries below come with measured pIC50 values attached.
# Tgt: DNA-PK (Homo sapiens)
# Construct: purchased Invitrogen PR9107A
# Test: DNA-PK Assay for Biochemical Enzymatic Inhibition (ADP Glo Kinase assay)
# Study conditions: Table 1
pIC50: −log10 of the molar value.
Quantity measured: pIC50

                                   molecule        result
0  c1cnc2cc(N3CCOCC3)nc(O[C@H]3CC[C@@H](Nc4ccc5ncnn5c4)CC3)c2c1 [Compound 92]  8.00 to 9.00
1  NS(=O)(=O)c1cnc(N[C@H]2CC[C@@H](Oc3nc(N4CCOCC4)cc4ncccc34)CC2)nc1 [Compound 46]  9.00 to 9.30
2  c1cncc(N[C@H]2CC[C@@H](Oc3nc(N4CCOCC4)cc4ncccc34)CC2)c1 [Compound 26]  9.00 to 9.30
3  Cc1nccc(N[C@H]2CC[C@@H](Oc3nc(N4CCOCC4)cc4ncccc34)CC2)n1 [Compound 37]        > 9.30

----------
# Test: Pharmacokinetic study in rats (IV, PO)
# Assay type: in vivo, Sprague-Dawley rats
# Study conditions: male, Sprague-Dawley; Table B; Rat Plasma; IV; 3 mg/kg; read-out: Cmax (5 min)
Quantity measured: Cmax (ng/mL)

                                smiles_repr  number
0  O=C(N[C@H]1CC[C@@H](Oc2nc(N3CCOCC3)cc3ncccc23)CC1)c1ncccn1    1490

----------
Consider the following molecules and their measured pIC50 readings.
# Tgt: DNA-PK phosphorylation at Serine 2056 (Homo sapiens, UniProt P78527)
# Construct: host or cells: FaDu
# Test: Cellular Assay for Inhibition of DNA-PK Phosphorylation at Serine 2056 (FaDu cells, neocarzinostatin, sandwich ELISA)
# Format: cell-based
# Study conditions: Table 3
# Experimental: FaDu cells were purchased from ATCC and maintained in MEM alpha medium (Life Technologies, cat. no. 12561) supplemented with 10% fetal bovine serum, and 1% GlutaMAX at 37° C. supplemented with 5% CO2. 50,000 cells were seeded to each well of a 96-well cell culture plate in 50 μL of culture medium and incubated for 16-24 hours. Three-fold serially diluted compounds were prepared in DMSO. […] Cell lysates were thawed on wet ice and protein concentrations quantified by BCA Protein Assay (Thermo # 23225). […]
pIC50: −log10 of the molar value.
Quantity measured: pIC50

>>> print(df.to_string())
                                 smiles_repr  quantity_measured        result
 0  CS(=O)(=O)Nc1cnc2cc(N3CCOCC3)nc(O[C@H]3CC[C@@H](Nc4cccnc4)CC3)c2c1              pIC50        > 7.00
 1  N#Cc1cnc(N[C@H]2CC[C@@H](Oc3nc(N4CCOCC4)cc4ncc(O)cc34)CC2)cn1              pIC50  6.00 to 7.00
 2  Cc1cnc(N[C@H]2CC[C@@H](Oc3nc(N4CCOCC4)cc4ncc(NS(C)(=O)=O)cc34)CC2)nc1              pIC50        > 7.00
 3  CS(=O)(=O)Nc1cnc2cc(N3CCOCC3)nc(O[C@H]3CC[C@@H](Nc4ccncc4Br)CC3)c2c1              pIC50        > 7.00
 4  Oc1cnc2cc(N3CCOCC3)nc(O[C@H]3CC[C@@H](Nc4ncc(F)cc4F)CC3)c2c1              pIC50  6.00 to 7.00
 5  COc1cnc(N[C@H]2CC[C@@H](Oc3nc(N4CCOCC4)cc4ncc(NS(C)(=O)=O)cc34)CC2)cn1              pIC50        > 7.00
 6  CS(=O)(=O)Nc1cnc2cc(N3CCOCC3)nc(O[C@H]3CC[C@@H](Nc4nccc(C(F)(F)F)n4)CC3)c2c1              pIC50  6.00 to 7.00
 7  Cn1cc([C@H]2CC[C@H](Oc3nc(N4CCOCC4)cc4ncc(NS(C)(=O)=O)cc34)CC2)cn1              pIC50  4.52 to 5.00
 8  CS(=O)(=O)Nc1cnc2cc(N3CCOCC3)nc(O[C@H]3CC[C@@H](Nc4ccc(C(F)(F)F)cn4)CC3)c2c1              pIC50        > 7.00
 9  COc1nc(N[C@H]2CC[C@@H](Oc3nc(N4CCOCC4)cc4ncc(NS(C)(=O)=O)cc34)CC2)ncc1C              pIC50  6.00 to 7.00
10  COc1cccnc1N[C@H]1CC[C@@H](Oc2nc(N3CCOCC3)cc3ncc(NS(C)(=O)=O)cc23)CC1              pIC50        > 7.00
11  COc1ccc(C)nc1N[C@H]1CC[C@@H](Oc2nc(N3CCOCC3)cc3ncc(NS(C)(=O)=O)cc23)CC1              pIC50  6.00 to 7.00
12  CS(=O)(=O)Nc1cnc2cc(N3CCOCC3)nc(O[C@H]3CC[C@@H](n4cc(F)cn4)CC3)c2c1              pIC50        > 7.00
13  CS(=O)(=O)Nc1cnc2cc(N3CCOCC3)nc(O[C@H]3CC[C@@H](Nc4cncc(C(F)(F)F)n4)CC3)c2c1              pIC50  6.00 to 7.00
14  CS(=O)(=O)Nc1cnc2cc(N3CCOCC3)nc(O[C@H]3CC[C@@H](Nc4ccc(C#N)nn4)CC3)c2c1              pIC50        > 7.00
